Origin of measurements: ChEMBL document CHEMBL4007392

biological target: Mineralocorticoid receptor (Rattus norvegicus); test: Displacement of [3H]-Aldosterone from MR in Sprague-Dawley rat kidney cytosolic fraction measured after overnight incubation by liquid scintillation counting method
Sequence (P22199 whole entry): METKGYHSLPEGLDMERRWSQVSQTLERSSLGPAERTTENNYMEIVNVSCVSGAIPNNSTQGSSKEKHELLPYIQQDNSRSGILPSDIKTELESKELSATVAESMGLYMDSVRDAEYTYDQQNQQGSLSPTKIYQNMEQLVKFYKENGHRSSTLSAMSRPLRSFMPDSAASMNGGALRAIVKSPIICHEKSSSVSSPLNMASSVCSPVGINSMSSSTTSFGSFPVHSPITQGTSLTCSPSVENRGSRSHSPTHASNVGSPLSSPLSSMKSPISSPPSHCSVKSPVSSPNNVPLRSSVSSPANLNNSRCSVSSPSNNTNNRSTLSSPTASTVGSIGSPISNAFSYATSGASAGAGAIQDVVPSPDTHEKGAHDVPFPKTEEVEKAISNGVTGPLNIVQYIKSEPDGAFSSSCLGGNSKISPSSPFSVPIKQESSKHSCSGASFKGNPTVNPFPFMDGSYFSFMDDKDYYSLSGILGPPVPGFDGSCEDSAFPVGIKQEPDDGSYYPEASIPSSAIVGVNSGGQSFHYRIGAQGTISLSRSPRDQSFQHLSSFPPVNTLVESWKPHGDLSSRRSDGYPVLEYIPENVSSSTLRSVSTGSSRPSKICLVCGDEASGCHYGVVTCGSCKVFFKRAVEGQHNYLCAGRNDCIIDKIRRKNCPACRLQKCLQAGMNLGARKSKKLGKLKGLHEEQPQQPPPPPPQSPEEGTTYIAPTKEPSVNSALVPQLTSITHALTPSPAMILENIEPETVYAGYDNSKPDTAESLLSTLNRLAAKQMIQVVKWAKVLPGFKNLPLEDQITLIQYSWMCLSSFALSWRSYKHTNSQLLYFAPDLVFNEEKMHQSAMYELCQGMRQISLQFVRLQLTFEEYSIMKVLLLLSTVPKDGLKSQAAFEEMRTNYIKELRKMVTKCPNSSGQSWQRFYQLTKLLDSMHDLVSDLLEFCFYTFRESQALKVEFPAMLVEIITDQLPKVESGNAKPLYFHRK
Give IC50 for every item shown.

Known results for molecules:
Cc1cc(Cl)ccc1C1=CC(C)(C)Oc2cc(NS(C)(=O)=O)ccc21 :: < 500 nM
Cc1cc(NS(C)(=O)=O)cc2c1C(c1ccc(F)cc1)=NC(C)(C)O2 :: < 500 nM
CC1=C(c2ccc(F)cc2)c2ccc(NS(C)(=O)=O)cc2OC1(C)C :: < 500 nM

Shifting focus to the molecule that follows.
Request: Hi! What's the reported IC50 for CC1(C)N=C(c2ccc(Cl)cc2)c2ccc(NS(C)(=O)=O)cc2O1 on Mineralocorticoid receptor (Rattus norvegicus)?
Result: < 500 nM
